- Measurement Target: T1, mouse DKK1 (R&D Systems) (mouse, UniProt O54908 32-272)
- T1 construct: Bought protein
- T1 sequence (looked up): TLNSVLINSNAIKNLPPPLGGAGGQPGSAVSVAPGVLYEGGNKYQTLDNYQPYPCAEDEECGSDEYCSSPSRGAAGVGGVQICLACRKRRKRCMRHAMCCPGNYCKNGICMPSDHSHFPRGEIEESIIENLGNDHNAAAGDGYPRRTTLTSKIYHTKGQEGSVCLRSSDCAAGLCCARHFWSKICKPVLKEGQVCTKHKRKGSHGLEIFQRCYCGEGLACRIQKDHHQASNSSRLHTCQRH
- Protocol Description: SPR (Biacore), DKK1 immobilised on CM5 chip, Fab as analyte
Value Type: Kd (nM)

>  <Binder>
MOR04461 (Fab, V domains shown, Fab with C-terminal FLAG and 6xHis tags) VH: QVQLVESGGGLVQPGGSLRLSCAASGFTFSSYWMSWVRQAPGKGLEWVSGISYSGSNTHYADSVKGRFTISRDNSKNTLYLQMNSLRAEDTAVYYCARMGIDLDYWGQGTLVTVSS VL: DIALTQPASVSGSPGQSITISCTGTSSDVGGFNYVSWYQQHPGKAPKLMIHDGSNRPSGVSNRFSGSKSGNTASLTISGLQAEDEADYYCSTWDMTVDFVFGGGTKLTVLG

>  <Value Type>
Kd

>  <Uom>
nM

>  <Quantitative Readout>
12.8

$$$$
>  <Binder>
MOR04456 (Fab, V domains shown, Fab with C-terminal FLAG and 6xHis tags) VH: QVQLVESGGGLVQPGGSLRLSCAASGFTFNNYGMTWVRQAPGKGLEWVSGISGSGSYTYYADSVKGRFTISRDNSKNTLYLQMNSLRAEDTAVYYCARTIYMDYWGQGTLVTVSS VL: DIVLTQSPATLSLSPGERATLSCRASQNLFSPYLAWYQQKPGQAPRLLIYGASNRATGVPARFSGSGSGTDFTLTISSLEPEDFATYYCQQYGDEPITFGQGTKVEIKR

>  <Value Type>
Kd

>  <Uom>
nM

>  <Quantitative Readout>
11.6

$$$$
>  <Binder>
MOR04516 (Fab, V domains shown, Fab with C-terminal FLAG and 6xHis tags; also called MOR4516) VH: QVQLVQSGAEVKKPGESLKISCKGSGYSFTNYYIGWVRQMPGKGLEWMGIIYPTDSYTNYSPSFQGQVTISADKSISTAYLQWSSLKASDTAMYYCARGIPFRMRGFDYWGQGTLVTVSS VL: DIVLTQPPSVSGAPGQRVTISCSGSSSNIGSSFVNWYQQLPGTAPKLLIGNNSNRPSGVPDRFSGSKSGTSASLAITGLQSEDEADYYCASFDMGSPNVVFGGGTKLTVLG

>  <Value Type>
Kd

>  <Uom>
nM

>  <Quantitative Readout>
2.4

$$$$
>  <Binder>
MOR04470 (Fab, V domains shown, Fab with C-terminal FLAG and 6xHis tags) VH: QVQLVESGGGLVQPGGSLRLSCAASGFTFSSYWMSWVRQAPGKGLEWVSVISSDSSSTYYADSVKGRFTISRDNSKNTLYLQMNSLRAEDTAVYYCARHGIDFDHWGQGTLVTVSS VL: DIALTQPASVSGSPGQSITISCTGTSSDLGGYNYVSWYQQHPGKAPKLMIYDVNNRPSGVSNRFSGSKSGNTASLTISGLQAEDEADYYCQSYASGNTKVVFGGGTKLTVLG

>  <Value Type>
Kd

>  <Uom>
nM

>  <Quantitative Readout>
3.6

$$$$
>  <Binder>
MOR04454 (Fab, V domains shown, Fab with C-terminal FLAG and 6xHis tags) VH: QVQLVESGGGLVQPGGSLRLSCAASGFTFSNYGLHWVRQAPGKGLEWVSSISYYGSSTYYADSVKGRFTISRDNSKNTLYLQMNSLRAEDTAVYYCARDGSHMDKPPGYVFAFWGQGTLVTVSS VL: DIQMTQSPSSLSASVGDRVTITCRASQGIKNYLNWYQQKPGKAPKLLIGAASSLQSGVPSRFSGSGSGTDFTLTISSLQPEDFATYYCLQYYGMPPTFGQGTKVEIKR

>  <Value Type>
Kd

>  <Uom>
nM

>  <Quantitative Readout>
6

$$$$
